- target of assay: Acetylcholinesterase (Homo sapiens)
reported metric: IC50 (µM)

>  <chemical structure>
C[C@@H]1CC[C@]2(C(=O)NCc3ccc(F)cc3)CC[C@]3(C)C(=CC[C@@H]4[C@@]5(C)C[C@@H](O)[C@H](O)[C@@](C)(CO)[C@@H]5CC[C@]43C)[C@@H]2[C@]1(C)O

>  <result unit>
µM

>  <readout qualifier>
>

>  <numeric value>
100

$$$$
>  <chemical structure>
C[C@@H]1CC[C@]2(C(=O)O)CC[C@]3(C)C(=CC[C@@H]4[C@@]5(C)C[C@@H](OC(=O)c6ccc(Cl)cc6)[C@H](O)[C@@](C)(CO)[C@@H]5CC[C@]43C)[C@@H]2[C@]1(C)OC(=O)c1ccc(Cl)cc1

>  <result unit>
µM

>  <readout qualifier>
=

>  <numeric value>
54.3

$$$$
>  <chemical structure>
C[C@@H]1CC[C@]2(C(=O)O)CC[C@]3(C)C(=CC[C@@H]4[C@@]5(C)C[C@@H](O)[C@H](OC(=O)c6ccc(C(F)(F)F)cc6)[C@@](C)(CO)[C@@H]5CC[C@]43C)[C@@H]2[C@]1(C)O

>  <result unit>
µM

>  <readout qualifier>
>

>  <numeric value>
100

$$$$
>  <chemical structure>
C[C@@H]1CC[C@]2(C(=O)NCc3ccc(Cl)cc3)CC[C@]3(C)C(=CC[C@@H]4[C@@]5(C)C[C@@H](O)[C@H](O)[C@@](C)(CO)[C@@H]5CC[C@]43C)[C@@H]2[C@]1(C)O

>  <result unit>
µM

>  <readout qualifier>
=

>  <numeric value>
64.8

$$$$
>  <chemical structure>
C[C@@H]1CC[C@]2(C(=O)O)CC[C@]3(C)C(=CC[C@@H]4[C@@]5(C)C[C@@H](OC(=O)c6ccc(Cl)cc6)[C@H](OC(=O)c6ccc(Cl)cc6)[C@@](C)(CO)[C@@H]5CC[C@]43C)[C@@H]2[C@]1(C)O

>  <result unit>
µM

>  <readout qualifier>
=

>  <numeric value>
21.2

$$$$
>  <chemical structure>
CCCC(=O)OC[C@]1(C)C=C(C=O)[C@@]2(C)[C@H]1CC[C@]1(C)[C@@H]2CC=C2[C@H]3[C@](C(=O)O)(CC[C@@H](C)[C@@]3(C)O)CC[C@]21C

>  <result unit>
µM

>  <readout qualifier>
>

>  <numeric value>
100

$$$$
>  <chemical structure>
C[C@@H]1CC[C@]2(C(=O)NCc3ccc(Br)cc3)CC[C@]3(C)C(=CC[C@@H]4[C@@]5(C)C[C@@H](O)[C@H](O)[C@@](C)(CO)[C@@H]5CC[C@]43C)[C@@H]2[C@]1(C)O

>  <result unit>
µM

>  <readout qualifier>
=

>  <numeric value>
84.5

$$$$

###

pIC50: −log10 of the molar value.
Assay read-out pIC50; system under study: Acetylcholinesterase (Homo sapiens, UniProt P22303).
Sequence (P22303 whole entry): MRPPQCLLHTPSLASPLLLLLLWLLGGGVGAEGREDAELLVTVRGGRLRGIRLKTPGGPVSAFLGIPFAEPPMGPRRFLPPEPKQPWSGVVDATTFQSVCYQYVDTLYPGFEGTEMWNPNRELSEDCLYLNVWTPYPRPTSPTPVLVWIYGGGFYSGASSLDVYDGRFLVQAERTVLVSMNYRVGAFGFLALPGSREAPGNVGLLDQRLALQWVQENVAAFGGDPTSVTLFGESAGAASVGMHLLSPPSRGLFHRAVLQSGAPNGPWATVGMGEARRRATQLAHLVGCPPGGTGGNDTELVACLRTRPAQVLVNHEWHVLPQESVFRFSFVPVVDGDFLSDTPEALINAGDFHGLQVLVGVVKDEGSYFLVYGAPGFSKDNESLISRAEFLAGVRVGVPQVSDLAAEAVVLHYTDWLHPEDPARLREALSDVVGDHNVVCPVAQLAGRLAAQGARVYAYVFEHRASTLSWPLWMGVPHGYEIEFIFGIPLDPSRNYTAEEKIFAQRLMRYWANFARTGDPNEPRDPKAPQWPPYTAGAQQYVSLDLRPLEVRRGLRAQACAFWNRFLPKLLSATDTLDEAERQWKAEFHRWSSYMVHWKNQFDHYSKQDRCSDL

>  <compound>
C[C@@H]1CC[C@]2(C(=O)O)CC[C@]3(C)C(=CC[C@@H]4[C@@]5(C)C[C@@H](OC(=O)CCc6ccccc6)[C@H](OC(=O)CCc6ccccc6)[C@@](C)(CO)[C@@H]5CC[C@]43C)[C@@H]2[C@]1(C)O

>  <readout qualifier>
=

>  <pIC50>
5.23

$$$$
>  <compound>
C[C@@H]1CC[C@]2(C(=O)NCc3cccc(F)c3)CC[C@]3(C)C(=CC[C@@H]4[C@@]5(C)C[C@@H](O)[C@H](O)[C@@](C)(CO)[C@@H]5CC[C@]43C)[C@@H]2[C@]1(C)O

>  <readout qualifier>
<

>  <pIC50>
4.00

$$$$
>  <compound>
C[C@@H]1CC[C@]2(C(=O)O)CC[C@]3(C)C(=CC[C@@H]4[C@@]5(C)C[C@@H](O)OCC(C)(C=O)[C@@H]5CC[C@]43C)[C@@H]2[C@]1(C)O (stereo not given in full)

>  <readout qualifier>
<

>  <pIC50>
4.00

$$$$
>  <compound>
C[C@@H]1CC[C@]2(C(=O)O)CC[C@]3(C)C(=CC[C@@H]4[C@@]5(C)C(C=O)=C[C@@](C)(COC(=O)c6ccc(F)cc6)[C@@H]5CC[C@]43C)[C@@H]2[C@]1(C)O

>  <readout qualifier>
=

>  <pIC50>
4.14

$$$$
>  <compound>
C[C@@H]1CC[C@]2(C(=O)NCc3cccc(Cl)c3)CC[C@]3(C)C(=CC[C@@H]4[C@@]5(C)C[C@@H](O)[C@H](O)[C@@](C)(CO)[C@@H]5CC[C@]43C)[C@@H]2[C@]1(C)O

>  <readout qualifier>
=

>  <pIC50>
4.20

$$$$
